Experimental target: human collagen type I (Homo sapiens, UniProt P02452+P08123)
Construct: Acid soluble human collagen extracted from placenta; purchased Sigma C7774 (lot #083K375); host or cells: human placenta
Sequence (P02452 162-1218 limits assumed): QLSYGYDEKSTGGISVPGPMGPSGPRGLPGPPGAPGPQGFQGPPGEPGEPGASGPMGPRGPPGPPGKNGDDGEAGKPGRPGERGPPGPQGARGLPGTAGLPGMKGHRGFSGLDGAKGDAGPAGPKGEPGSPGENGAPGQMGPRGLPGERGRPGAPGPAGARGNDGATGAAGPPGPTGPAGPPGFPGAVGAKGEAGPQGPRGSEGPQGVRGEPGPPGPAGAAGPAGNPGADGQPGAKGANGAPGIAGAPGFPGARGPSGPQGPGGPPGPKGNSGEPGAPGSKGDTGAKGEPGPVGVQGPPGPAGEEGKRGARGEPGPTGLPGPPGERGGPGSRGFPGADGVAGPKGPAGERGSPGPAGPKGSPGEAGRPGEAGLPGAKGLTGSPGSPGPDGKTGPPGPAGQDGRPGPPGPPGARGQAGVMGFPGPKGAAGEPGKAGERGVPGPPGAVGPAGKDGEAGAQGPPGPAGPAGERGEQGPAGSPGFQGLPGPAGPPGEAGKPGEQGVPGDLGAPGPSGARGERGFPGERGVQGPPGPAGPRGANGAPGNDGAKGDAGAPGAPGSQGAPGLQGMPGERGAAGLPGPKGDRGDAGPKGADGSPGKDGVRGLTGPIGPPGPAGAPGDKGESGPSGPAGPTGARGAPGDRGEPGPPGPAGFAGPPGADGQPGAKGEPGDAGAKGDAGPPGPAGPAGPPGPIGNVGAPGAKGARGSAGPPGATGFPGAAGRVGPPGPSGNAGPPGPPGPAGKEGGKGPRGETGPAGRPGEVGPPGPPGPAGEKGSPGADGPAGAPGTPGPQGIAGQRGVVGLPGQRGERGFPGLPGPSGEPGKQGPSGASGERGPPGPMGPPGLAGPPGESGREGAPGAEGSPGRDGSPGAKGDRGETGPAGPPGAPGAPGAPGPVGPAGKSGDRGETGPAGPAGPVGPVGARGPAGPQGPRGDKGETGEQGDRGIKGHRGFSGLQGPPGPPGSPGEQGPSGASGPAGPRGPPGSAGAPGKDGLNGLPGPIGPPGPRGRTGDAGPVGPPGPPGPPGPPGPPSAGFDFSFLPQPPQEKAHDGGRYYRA
Sequence (P08123 80-1119 limits assumed): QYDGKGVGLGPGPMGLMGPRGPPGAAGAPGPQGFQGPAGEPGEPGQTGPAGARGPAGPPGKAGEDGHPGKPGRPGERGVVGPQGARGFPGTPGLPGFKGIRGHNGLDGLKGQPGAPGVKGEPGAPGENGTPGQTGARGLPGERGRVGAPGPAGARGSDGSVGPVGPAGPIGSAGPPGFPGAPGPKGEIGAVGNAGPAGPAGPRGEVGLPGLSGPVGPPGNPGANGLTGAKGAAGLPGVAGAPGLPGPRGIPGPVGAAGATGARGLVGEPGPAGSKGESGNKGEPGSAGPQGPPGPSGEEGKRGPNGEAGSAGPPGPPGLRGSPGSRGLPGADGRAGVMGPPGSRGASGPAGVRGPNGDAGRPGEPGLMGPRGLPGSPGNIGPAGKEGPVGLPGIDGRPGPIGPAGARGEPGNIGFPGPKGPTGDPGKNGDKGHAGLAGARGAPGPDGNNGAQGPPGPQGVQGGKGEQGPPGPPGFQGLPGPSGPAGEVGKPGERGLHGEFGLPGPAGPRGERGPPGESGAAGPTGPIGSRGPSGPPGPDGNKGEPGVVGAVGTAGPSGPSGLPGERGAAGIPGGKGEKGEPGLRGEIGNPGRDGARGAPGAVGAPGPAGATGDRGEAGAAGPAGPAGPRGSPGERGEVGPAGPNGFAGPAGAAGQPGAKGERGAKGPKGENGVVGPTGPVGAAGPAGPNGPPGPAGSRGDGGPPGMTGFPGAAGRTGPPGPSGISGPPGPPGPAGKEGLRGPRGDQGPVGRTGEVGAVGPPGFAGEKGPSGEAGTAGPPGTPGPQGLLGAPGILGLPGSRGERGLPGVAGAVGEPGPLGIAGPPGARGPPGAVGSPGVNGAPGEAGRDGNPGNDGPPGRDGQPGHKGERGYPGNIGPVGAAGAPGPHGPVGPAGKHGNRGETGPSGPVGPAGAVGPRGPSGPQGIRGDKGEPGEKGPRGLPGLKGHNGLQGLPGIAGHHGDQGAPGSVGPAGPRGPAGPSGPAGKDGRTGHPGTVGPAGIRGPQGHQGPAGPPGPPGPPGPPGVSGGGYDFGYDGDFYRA
Assay summary: Dried collagen assay (DCA): percent binding to dried human collagen
Assay conditions: 5 μM peptide in PBS, pH 7.4, 2 hours at room temperature
Experimental: Acid soluble human collagen extracted from placenta (Sigma, cat #C7774, lot #083K375) is dissolved in 15 mM HCl (3.5 mg/ml) by vortexing and gently shaking for 3-4 hours at 4° C. […] The NaH2PO4 protein concentration is determined by the BCA method (Pierce, Cat #23225) using bovine collagen (Vitrogen, cat #FXP-019) as a reference standard. Percent gelation (fibril formation) of the collagen is determined by incubating 10 μM collagen (3.3 mg/ml) at 37° C. for 6 hours. […]
Bridge positions count the residues as written; N and C are the ends. Square brackets hold non-standard residues; d marks the D form. Ends that are not written are not given here.
// boundary case: % Collagen Binding Dried Human equal to 4% maps to Criterion not met; strictly smaller maps to Criterion met

Worked examples follow.
176 (QWTCSGDEYTWHC[dN]YE; disulfide 4-13 (inferred)) [compound 176]    Criterion met
166 (QW[dT]CSGDEYTWHCNYE; disulfide 4-13 (inferred)) [compound 166]    Criterion met
159 (YHACYQAG[dC]WIW; disulfide 4-9 (inferred)) [compound 159]    Criterion not met

Prompt line: Here's an entry: 174 (QWTCSGDEYTW[dH]CNYE; disulfide 4-13 (inferred)) [compound 174] . Is its % Collagen Binding Dried Human below 4%?
Response line: Criterion not met

Prompt line: Item: 165 (Q[dW]TCSGDEYTWHCNYE; disulfide 4-13 (inferred)) [compound 165]
Response line: Criterion met

Prompt line: Please answer likewise for 175 (QWTCSGDEYTWH[dC]NYE; disulfide 4-13 (inferred)) [compound 175]
Response line: Criterion met

Prompt line: Moving on to the next substance: 173 (QWTCSGDEYT[dW]HCNYE; disulfide 4-13 (inferred)) [compound 173]
Response line: Criterion not met

Prompt line: Similarly, 168 (QWTC[dS]GDEYTWHCNYE; disulfide 4-13 (inferred)) [compound 168] ?
Response line: Criterion met

Prompt line: And what about the substance 147 (QWTCSGDEYTAHCNYE; disulfide 4-13 (inferred)) [compound 147] ?
Response line: Criterion not met
